B1: ZBTB22 (parent)
chain: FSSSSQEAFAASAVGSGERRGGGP

# Variants of: B1
# protocol text: protein stability index of a GFP-peptide fusion (GPS, HEK-293T) (PSI 1-6); higher = more stable;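 further: lentivirally expressed fusions sorted by FACS into six bins by GFP to DsRed ratio, PSI derived from sequencing read proportions per bin multiplied by bin number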
# condition set: c terminus: a fixed tail appended
assay readout: protein stability index

{"columns": ["sequence content", "assay readout", "value measured"],
 "data": [
  ["FSSSSQEAFAASAVGSGERRHGGP [G21H]", "protein stability index", 3.03],
  ["FSSSSQEAFAASAVGSGDRRGGGP [E18D]", "protein stability index", 2.98],
  ["FSSSSQEAFAASAVGSGERRGGVP [G23V]", "protein stability index", 3.03]
]}

Data origin: the supplement of paper PMC10567573
